Target: Human neutrophil elastase (Homo sapiens, UniProt P08246 P08246:30-267)
Sequence (P08246 30-267, one chain of several): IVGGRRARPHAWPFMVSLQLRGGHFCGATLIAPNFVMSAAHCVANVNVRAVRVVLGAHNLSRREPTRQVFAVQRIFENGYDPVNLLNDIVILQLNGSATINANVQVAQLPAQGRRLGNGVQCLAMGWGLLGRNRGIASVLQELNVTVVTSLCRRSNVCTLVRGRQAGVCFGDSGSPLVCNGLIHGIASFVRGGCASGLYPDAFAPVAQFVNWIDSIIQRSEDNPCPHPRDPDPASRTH
Experiment: filter; 6 mM KCl, 2 mM MgCl2, pH 7.0
Conditions: tags: Athens Research and Technology
attribute.measured: Kd (nM)
# unit: nM | format: bare number

binder	unit.symbol	data.value
ligand 44 (class I) (ssRNA, 2'-NH2 all pyrimidines) RNA: GGGAGCUCAGAAUAAACGCUCAAGAGUAGGCUUGACGCUGGGGGGGUAUGGCUUCGACUUGCGUUCGACAUGAGGCCCGGAUCCGGC	nM	28

Query: Entry under review: ligand 3 (class VI) (ssRNA, 2'-NH2 all pyrimidines) RNA: GGGAGCUCAGAAUAAACGCUCAAUGAGGUUGAGUAGUCGUGGUAAUGGCCACGGCUGGGGGGGUCGGUUCGACAUGAGGCCCGGAUCCGGC . Reported Kd?
Result: 28

Query: Entry under review: ligand 28 (class IV) (ssRNA, 2'-NH2 all pyrimidines) RNA: GGGAGCUCAGAAUAAACGCUCAAAUCGGAUAGCGCCGCGAUGGCGUCUGGGGGGGACCAGGGAUUCGACAUGAGGCCCGGAUCCGGC . Reported Kd?
Result: 57
